pIC50 by entry:
# EXPERIMENTAL TARGET: Gastrin/cholecystokinin type B receptor (Rattus norvegicus, UniProt P30553)
# Sequence (P30553 whole entry): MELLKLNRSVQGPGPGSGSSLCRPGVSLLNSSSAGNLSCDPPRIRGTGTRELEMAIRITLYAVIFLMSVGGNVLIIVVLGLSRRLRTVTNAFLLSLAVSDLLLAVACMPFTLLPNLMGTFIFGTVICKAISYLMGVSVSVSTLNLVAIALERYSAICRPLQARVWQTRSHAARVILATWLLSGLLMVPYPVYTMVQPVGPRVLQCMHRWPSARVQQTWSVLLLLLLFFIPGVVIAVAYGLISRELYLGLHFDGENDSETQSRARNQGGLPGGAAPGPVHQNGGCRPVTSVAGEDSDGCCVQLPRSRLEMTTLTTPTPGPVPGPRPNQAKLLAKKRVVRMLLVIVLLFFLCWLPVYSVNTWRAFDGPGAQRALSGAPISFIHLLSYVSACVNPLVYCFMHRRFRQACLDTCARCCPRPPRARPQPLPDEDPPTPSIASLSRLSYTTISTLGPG
# ASSAY METHOD TEXT: Inhibition of [3H]pCCK-8 specific binding cholecystokinin type B receptor in rat cerebral cortex membranes
pIC50: −log10 of the molar value.

INSERT INTO results (query_smiles, experimental_target, recorded_value) VALUES
  ('Cc1ccc(N2C(=O)C[C@H]3[C@H](NC(=O)[C@H](Cc4c[nH]c5ccccc45)NC(=O)OC(C)(C)C)CCCN3C2=O)cc1', 'Gastrin/cholecystokinin type B receptor (Rattus norvegicus, UniProt P30553)', '< 5.00'),
  ('CCOC(=O)[C@H](Cc1ccccc1)N1C(=O)C[C@H]2[C@H](NC(=O)[C@H](Cc3c[nH]c4ccccc34)NC(=O)OC(C)(C)C)CCCN2C1=O', 'Gastrin/cholecystokinin type B receptor (Rattus norvegicus, UniProt P30553)', '< 5.00'),
  ('CN(C)c1ccc(N2C(=O)C[C@H]3[C@H](NC(=O)[C@H](Cc4c[nH]c5ccccc45)NC(=O)OC(C)(C)C)CCCN3C2=O)cc1', 'Gastrin/cholecystokinin type B receptor (Rattus norvegicus, UniProt P30553)', '< 5.00'),
  ('C[C@H](c1ccccc1)N1C(=O)C[C@@H]2[C@@H](NC(=O)[C@H](Cc3c[nH]c4ccccc34)NC(=O)OC(C)(C)C)CCCN2C1=O', 'Gastrin/cholecystokinin type B receptor (Rattus norvegicus, UniProt P30553)', '< 5.00'),
  ('C[C@@H](c1ccccc1)N1C(=O)C[C@@H]2[C@@H](NC(=O)[C@H](Cc3c[nH]c4ccccc34)NC(=O)OC(C)(C)C)CCCN2C1=O', 'Gastrin/cholecystokinin type B receptor (Rattus norvegicus, UniProt P30553)', '< 5.00');

Turning now to a further record.
Item: Cc1ccc(N2C(=O)C[C@@H]3[C@@H](NC(=O)[C@H](Cc4c[nH]c5ccccc45)NC(=O)OC(C)(C)C)CCCN3C2=O)cc1 | pIC50: 5.63
